Biological target: MATE1 (Homo sapiens, UniProt Q96FL8)
Assay: Transporter inhibition assay, MATE1
parameter: IC50 (µM)
API: value field is a number in µM; no unit string.

Task: For CN1CCc2cc3c(cc2C1O)OCO3 (stereo not shown) [Hydrastinine, hydrastinine chloride monohydrate] , what is its reported IC50?
Output: 82

====

Experiment: clinical
Conditions: both, human, in vivo
parameter: CL renal (mL/min)
API: value field is a number in mL/min; no unit string.

Some entries whose results are on file:
CN(C)C(=N)N=C(N)N :: 700
Cc1ncc2n1-c1ccc(Cl)cc1C(c1ccccc1F)=NC2 :: 1.17

Task: For `CC(C)c1nc(N(C)S(C)(=O)=O)nc(-c2ccc(F)cc2)c1/C=C/[C@@H](O)C[C@@H](O)CC(=O)O` , what is its reported CL renal?
Output: 247

====

Assay: clinical
Details: both, human, in vivo
Entries annotated with measured AUC(0-inf)
API: value field is a number in µM·h; no unit string.

Cc1ncc2n1-c1ccc(Cl)cc1C(c1ccccc1F)=NC2 [Midazolam, midazolam] :: 0.096

Pending compound:
Task: For CN(C)C(=N)N=C(N)N [Metformin, metformin] , what is its reported AUC(0-inf)?
Output: 3.8

====

Target: OCT1 (Homo sapiens, UniProt O15245)
Sequence (O15245 whole entry): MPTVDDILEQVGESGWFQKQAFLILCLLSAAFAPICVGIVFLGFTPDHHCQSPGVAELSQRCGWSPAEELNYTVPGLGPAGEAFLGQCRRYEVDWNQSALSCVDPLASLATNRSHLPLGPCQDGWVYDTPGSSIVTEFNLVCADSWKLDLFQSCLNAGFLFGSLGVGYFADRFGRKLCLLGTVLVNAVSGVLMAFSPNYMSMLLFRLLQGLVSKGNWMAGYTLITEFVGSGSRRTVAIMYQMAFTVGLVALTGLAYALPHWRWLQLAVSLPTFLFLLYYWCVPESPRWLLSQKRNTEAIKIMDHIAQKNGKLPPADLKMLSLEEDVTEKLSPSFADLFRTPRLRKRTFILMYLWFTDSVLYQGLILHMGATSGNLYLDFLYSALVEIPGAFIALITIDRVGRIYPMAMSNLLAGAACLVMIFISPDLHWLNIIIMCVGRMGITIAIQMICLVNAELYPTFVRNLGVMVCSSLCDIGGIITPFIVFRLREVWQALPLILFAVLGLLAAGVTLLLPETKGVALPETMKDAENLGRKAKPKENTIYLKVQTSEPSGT
Test: Transporter inhibition assay, OCT1
Conditions: OCT1; isolated alkaloids; mean [95% CI], three technical replicates
parameter: IC50
Remember to put the unit after the number in your answer.

Task: For COc1ccc2c(c1OC)C(=O)O[C@@H]2[C@H]1c2cc3c(cc2CCN1C)OCO3 [(−)-β-Hydrastine, (1R,9S)-(−)-β-Hydrastine] , what is its reported IC50?
Output: 6.6 µM

====

Target: BSEP (Homo sapiens)
Sequence (O95342 whole entry): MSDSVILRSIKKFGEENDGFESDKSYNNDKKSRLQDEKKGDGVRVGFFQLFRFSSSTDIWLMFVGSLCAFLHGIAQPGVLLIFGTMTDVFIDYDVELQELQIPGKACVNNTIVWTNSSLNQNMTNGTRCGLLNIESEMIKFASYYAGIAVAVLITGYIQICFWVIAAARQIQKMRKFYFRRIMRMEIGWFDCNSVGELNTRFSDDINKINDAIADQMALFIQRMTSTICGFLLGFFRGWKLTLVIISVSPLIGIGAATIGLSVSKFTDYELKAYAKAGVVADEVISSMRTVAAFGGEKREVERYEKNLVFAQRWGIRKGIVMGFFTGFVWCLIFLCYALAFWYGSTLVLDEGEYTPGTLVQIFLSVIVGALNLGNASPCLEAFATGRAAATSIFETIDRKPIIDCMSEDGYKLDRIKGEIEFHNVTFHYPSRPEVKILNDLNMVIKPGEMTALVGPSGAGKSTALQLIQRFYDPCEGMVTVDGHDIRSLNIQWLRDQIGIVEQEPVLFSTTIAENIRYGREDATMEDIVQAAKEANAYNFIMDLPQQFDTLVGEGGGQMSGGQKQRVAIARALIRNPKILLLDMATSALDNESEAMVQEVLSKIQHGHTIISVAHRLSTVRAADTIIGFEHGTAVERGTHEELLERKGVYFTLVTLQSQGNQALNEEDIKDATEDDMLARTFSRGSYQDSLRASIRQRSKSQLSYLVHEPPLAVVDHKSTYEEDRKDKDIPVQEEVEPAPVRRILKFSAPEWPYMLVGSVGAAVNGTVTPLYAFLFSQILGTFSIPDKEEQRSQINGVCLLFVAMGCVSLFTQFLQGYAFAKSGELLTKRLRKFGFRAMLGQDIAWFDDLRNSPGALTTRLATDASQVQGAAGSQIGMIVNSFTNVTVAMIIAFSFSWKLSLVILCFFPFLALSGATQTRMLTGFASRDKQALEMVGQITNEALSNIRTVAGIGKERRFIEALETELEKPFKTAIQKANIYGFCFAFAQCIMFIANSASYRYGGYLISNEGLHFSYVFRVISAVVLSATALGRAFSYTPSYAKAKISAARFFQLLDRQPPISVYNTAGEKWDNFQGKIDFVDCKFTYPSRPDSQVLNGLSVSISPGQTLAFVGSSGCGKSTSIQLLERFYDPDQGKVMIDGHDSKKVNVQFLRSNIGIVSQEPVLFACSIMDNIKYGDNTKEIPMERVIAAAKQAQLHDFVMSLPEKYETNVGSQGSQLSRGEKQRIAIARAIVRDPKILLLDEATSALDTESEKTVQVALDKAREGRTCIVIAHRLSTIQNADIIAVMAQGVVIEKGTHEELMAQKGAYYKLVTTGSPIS
Experiment: Transporter inhibition assay, BSEP
parameter: inhibition at 100 μM

CN1CCc2cc3c(cc2C1O)OCO3 (centres unmarked) [Hydrastinine, hydrastinine chloride monohydrate] :: < 20%

Task: For COc1ccc2cc3[n+](cc2c1OC)CCc1cc2c(cc1-3)OCO2 [Berberine, berberine chloride] , what is its reported inhibition at 100 μM?
Output: < 20%

====

Target: BCRP (Homo sapiens)
Sequence (Q9UNQ0 whole entry): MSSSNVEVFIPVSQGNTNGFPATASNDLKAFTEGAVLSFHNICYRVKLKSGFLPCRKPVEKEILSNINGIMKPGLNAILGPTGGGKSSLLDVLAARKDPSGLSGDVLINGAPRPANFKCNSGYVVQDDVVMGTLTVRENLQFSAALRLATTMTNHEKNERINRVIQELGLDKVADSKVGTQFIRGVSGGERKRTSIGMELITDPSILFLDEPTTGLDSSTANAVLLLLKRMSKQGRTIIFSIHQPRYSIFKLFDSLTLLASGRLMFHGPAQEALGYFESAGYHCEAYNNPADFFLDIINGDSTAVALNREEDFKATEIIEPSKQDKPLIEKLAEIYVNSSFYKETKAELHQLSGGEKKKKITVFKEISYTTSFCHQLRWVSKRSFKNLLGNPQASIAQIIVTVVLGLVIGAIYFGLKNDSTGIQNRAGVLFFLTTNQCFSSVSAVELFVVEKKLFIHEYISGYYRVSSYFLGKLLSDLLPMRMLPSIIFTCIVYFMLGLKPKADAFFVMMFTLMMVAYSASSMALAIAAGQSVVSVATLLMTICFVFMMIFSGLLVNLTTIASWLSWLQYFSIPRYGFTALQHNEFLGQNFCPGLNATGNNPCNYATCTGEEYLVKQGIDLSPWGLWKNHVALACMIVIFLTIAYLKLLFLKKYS
Assay: Vesicular transport inhibition assay, BCRP
parameter: pIC50
pIC50 field: float, defined as -log10 of concentration (mol/L).

Task: What is its pIC50 for BCRP (Homo sapiens)? Entry: COc1ccc2cc3[n+](cc2c1OC)CCc1cc2c(cc1-3)OCO2 [Berberine, berberine chloride]
Output: 3.74

====

Molecular target: OATP1B1 (Homo sapiens, UniProt Q9Y6L6)
Sequence (Q9Y6L6 whole entry): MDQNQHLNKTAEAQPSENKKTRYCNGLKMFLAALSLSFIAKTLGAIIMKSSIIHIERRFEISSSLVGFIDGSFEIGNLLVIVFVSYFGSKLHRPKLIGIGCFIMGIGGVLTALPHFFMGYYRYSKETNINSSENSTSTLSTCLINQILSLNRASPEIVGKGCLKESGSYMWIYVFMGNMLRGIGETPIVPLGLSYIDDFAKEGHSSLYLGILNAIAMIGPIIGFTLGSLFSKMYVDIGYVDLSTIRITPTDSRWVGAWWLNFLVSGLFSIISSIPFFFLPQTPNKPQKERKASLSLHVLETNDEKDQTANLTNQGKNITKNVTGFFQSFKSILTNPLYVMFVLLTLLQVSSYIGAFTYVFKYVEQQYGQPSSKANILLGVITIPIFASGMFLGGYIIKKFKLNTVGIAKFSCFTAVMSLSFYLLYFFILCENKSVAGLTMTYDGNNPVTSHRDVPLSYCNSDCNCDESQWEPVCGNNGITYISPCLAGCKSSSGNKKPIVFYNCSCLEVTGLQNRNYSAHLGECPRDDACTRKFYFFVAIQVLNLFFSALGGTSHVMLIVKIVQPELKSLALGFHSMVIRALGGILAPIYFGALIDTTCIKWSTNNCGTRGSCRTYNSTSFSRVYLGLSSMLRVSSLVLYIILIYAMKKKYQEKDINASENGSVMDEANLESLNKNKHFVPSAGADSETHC
Assay: Transporter inhibition assay, OATP1B1
Settings: cell line (HEK293 or MDCKII) stably expressing OATP1B1
Entries annotated with measured inhibition at 100 μM

CN1CCc2cc3c(cc2C1O)OCO3 (centres unmarked) [Hydrastinine, hydrastinine chloride monohydrate] :: < 20%

Pending compound:
Task: For COc1ccc2cc3[n+](cc2c1OC)CCc1cc2c(cc1-3)OCO2 [Berberine, berberine chloride] , what is its reported inhibition at 100 μM?
Output: < 20%

====

Target: MRP2 (Homo sapiens)
Sequence (Q92887 whole entry): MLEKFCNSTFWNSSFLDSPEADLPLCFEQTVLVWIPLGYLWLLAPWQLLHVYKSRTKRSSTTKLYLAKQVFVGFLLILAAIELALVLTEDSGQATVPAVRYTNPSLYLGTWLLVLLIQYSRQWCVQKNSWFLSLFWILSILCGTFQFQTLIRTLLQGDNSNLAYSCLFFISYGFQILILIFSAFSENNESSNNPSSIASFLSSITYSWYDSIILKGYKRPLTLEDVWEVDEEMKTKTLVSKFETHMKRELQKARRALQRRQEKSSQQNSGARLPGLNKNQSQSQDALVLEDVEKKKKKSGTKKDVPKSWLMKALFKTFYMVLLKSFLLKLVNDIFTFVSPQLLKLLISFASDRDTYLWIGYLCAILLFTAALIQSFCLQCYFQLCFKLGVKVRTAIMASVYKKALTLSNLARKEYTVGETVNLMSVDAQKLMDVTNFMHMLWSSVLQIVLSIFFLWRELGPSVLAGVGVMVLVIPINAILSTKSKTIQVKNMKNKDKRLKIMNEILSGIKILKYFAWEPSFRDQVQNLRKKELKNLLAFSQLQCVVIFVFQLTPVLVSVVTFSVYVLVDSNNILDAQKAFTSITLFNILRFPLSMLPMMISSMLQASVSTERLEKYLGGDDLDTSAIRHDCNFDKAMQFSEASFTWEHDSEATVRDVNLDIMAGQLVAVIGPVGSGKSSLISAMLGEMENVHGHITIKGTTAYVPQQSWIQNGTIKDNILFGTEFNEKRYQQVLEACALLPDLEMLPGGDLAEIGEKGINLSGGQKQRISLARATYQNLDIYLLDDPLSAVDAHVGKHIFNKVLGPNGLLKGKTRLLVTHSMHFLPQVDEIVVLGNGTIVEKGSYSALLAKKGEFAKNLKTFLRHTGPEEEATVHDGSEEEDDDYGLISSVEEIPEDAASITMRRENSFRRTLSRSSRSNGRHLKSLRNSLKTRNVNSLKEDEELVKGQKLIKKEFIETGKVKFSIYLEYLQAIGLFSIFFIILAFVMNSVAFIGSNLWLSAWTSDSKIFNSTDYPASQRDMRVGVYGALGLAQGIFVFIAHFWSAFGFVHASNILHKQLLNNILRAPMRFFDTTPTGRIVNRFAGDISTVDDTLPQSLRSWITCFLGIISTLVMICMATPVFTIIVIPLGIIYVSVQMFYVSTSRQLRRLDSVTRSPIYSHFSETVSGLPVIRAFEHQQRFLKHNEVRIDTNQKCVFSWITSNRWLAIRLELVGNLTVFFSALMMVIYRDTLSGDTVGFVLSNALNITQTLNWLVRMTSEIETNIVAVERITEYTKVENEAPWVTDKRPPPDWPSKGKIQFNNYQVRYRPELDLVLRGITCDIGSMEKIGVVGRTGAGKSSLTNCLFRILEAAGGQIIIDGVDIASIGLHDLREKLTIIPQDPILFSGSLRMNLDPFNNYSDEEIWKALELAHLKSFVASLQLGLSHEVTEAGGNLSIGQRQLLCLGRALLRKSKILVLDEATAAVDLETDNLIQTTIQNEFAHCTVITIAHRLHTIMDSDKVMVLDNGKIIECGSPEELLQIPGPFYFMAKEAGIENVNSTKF
Test: Transporter inhibition assay, MRP2
Entries annotated with measured inhibition at 100 μM

COc1ccc2cc3[n+](cc2c1OC)CCc1cc2c(cc1-3)OCO2 [Berberine, berberine chloride] :: < 20%

Pending molecule:
Task: For CN1CCc2cc3c(cc2C1O)OCO3 (centres unmarked) [Hydrastinine, hydrastinine chloride monohydrate] , what is its reported inhibition at 100 μM?
Output: < 20%

Where these numbers come from: paper PMC8058163
